The values you see were collected from DBAASP.

System: Pseudomonas aeruginosa ATCC 9027
Assay: ≥ marks a high value that may be exact or a test limit, other limits are often not marked, values filed in µg/mL are converted to µM
RECORDED_ENDPOINT: MIC
Remember to put the unit after the number in your answer.

>  <SMILES_STRING>
CC[C@H](C)[C@H](NC(=O)[C@@H](NC(=O)[C@H](CCCCN)NC(=O)[C@H](CCCCN)NC(=O)[C@H](CC(C)C)NC(=O)CN)C(C)C)C(=O)N[C@@H](CCCCN)C(=O)N[C@@H](CC(C)C)C(=O)N[C@@H](CC(C)C)C(=O)N[C@@H](CCCN=C(N)N)C(=O)N1CCC[C@H]1C(=O)N[C@@H](CC(C)C)C(=O)N[C@@H](CC(C)C)C(=O)O

>  <MIC>
16 µM

$$$$

Form: compound = CC[C@H](C)[C@H](NC(=O)[C@H](CCCN=C(N)N)NC(=O)[C@@H](NC(=O)[C@H](CCCN=C(N)N)NC(=O)[C@H](Cc1c[nH]c2ccccc12)NC(=O)[C@H](Cc1ccccc1)NC(=O)[C@@H]1CCCN1)[C@@H](C)CC)C(=O)N[C@@H](CCCN=C(N)N)C(=O)N[C@@H](CCCN=C(N)N)C(N)=O ; MIC = 100 µM

Recorded result, CC[C@H](C)[C@H](NC(=O)[C@H](CCCN=C(N)N)NC(=O)[C@H](CCCN=C(N)N)NC(=O)[C@H](CC(C)C)NC(=O)[C@@H](N)Cc1c[nH]c2ccccc12)C(=O)N[C@@H](CCCCN)C(=O)N[C@@H](C)C(=O)N[C@@H](Cc1c[nH]c2ccccc12)C(=O)N[C@@H](CC(C)C)C(=O)N[C@@H](CCCN=C(N)N)C(=O)N[C@@H](CCCN=C(N)N)C(=O)O , MIC: 64 µM

###

Tested on: Candida albicans ATCC 90028
RECORDED_ENDPOINT: MIC (µM)
Supply the numeric figure in µM, leaving out any unit text.

Note to self: MIC of CC[C@H](C)[C@H](NC(=O)[C@@H](NC(=O)[C@H](Cc1c[nH]c2ccccc12)NC(=O)[C@H](CCCCN)NC(=O)[C@H](Cc1ccccc1)NC(=O)[C@@H](NC(=O)[C@H](CCCCN)NC(=O)[C@@H](NC(=O)[C@H](CC(C)C)NC(=O)[C@H](CCCCN)NC(=O)[C@H](CCCN=C(N)N)NC(=O)CNC(=O)[C@H](CC(C)C)NC(=O)[C@H](CCCCN)NC(=O)[C@H](Cc1ccccc1)NC(=O)CN)C(C)C)C(C)C)[C@@H](C)CC)C(N)=O with Candida albicans ATCC 90028 was 1

###

Quick record: MIC, Staphylococcus aureus KCTC 1621.

For orientation, consider the following solved cases.
>  <SMILES_STRING>
NCCCC[C@H](NC(=O)[C@H](Cc1c[nH]c2ccccc12)NC(=O)[C@@H](N)CCCCN)C(=O)N[C@@H](Cc1c[nH]c2ccccc12)C(N)=O

>  <RECORDED_ENDPOINT>
MIC

>  <RESULT>
≥ 200 µM

$$$$
>  <SMILES_STRING>
CC[C@H](C)[C@H](NC(=O)[C@H](CCCCN)NC(=O)[C@H](CCCCN)NC(=O)[C@H](Cc1ccccc1)NC(=O)[C@H](CC(C)C)NC(=O)[C@H](CCCCN)NC(=O)[C@H](Cc1c[nH]c2ccccc12)NC(=O)[C@@H](N)CCCCN)C(=O)N[C@@H](CO)C(=O)N[C@@H](CCCCN)C(=O)N[C@@H](Cc1ccccc1)C(=O)N[C@@H](CC(C)C)C(=O)N[C@@H](Cc1cnc[nH]1)C(=O)N[C@@H](CC(C)C)C(=O)N[C@@H](C)C(=O)N[C@@H](CCCCN)C(=O)N[C@@H](CCCCN)C(=O)N[C@@H](Cc1ccccc1)C(N)=O

>  <RECORDED_ENDPOINT>
MIC

>  <RESULT>
6.25 µM

$$$$
>  <SMILES_STRING>
CC[C@H](C)[C@H](NC(=O)[C@H](CCCCN)NC(=O)[C@H](CO)NC(=O)[C@H](Cc1ccccc1)NC(=O)[C@H](CC(C)C)NC(=O)[C@H](CCCCN)NC(=O)[C@H](CCC(=O)O)NC(=O)[C@H](CC(C)C)NC(=O)[C@H](CCCN=C(N)N)NC(=O)[C@H](CCCCN)NC(=O)[C@H](Cc1ccccc1)NC(=O)[C@@H](NC(=O)[C@@H](N)CCCCN)C(C)C)C(N)=O

>  <RECORDED_ENDPOINT>
MIC

>  <RESULT>
6.25 µM

$$$$

Measured MIC of CC(C)C[C@H](NC(=O)[C@H](Cc1ccccc1)NC(=O)CNC(=O)[C@H](Cc1c[nH]c2ccccc12)NC(=O)[C@H](Cc1c[nH]c2ccccc12)NC(=O)[C@H](Cc1c[nH]c2ccccc12)NC(=O)CNC(=O)[C@H](Cc1ccccc1)NC(=O)[C@H](CCCN=C(N)N)NC(=O)[C@H](CCCN=C(N)N)NC(=O)[C@@H](N)C(C)C)C(=O)N[C@@H](CCCN=C(N)N)C(=O)N[C@@H](CCCN=C(N)N)C(=O)O : 8.78 µM

compound CC[C@H](C)[C@H](NC(=O)[C@H](CCCCN)NC(=O)[C@H](CCCCN)NC(=O)[C@H](Cc1ccccc1)NC(=O)[C@H](CC(C)C)NC(=O)[C@H](CCCCN)NC(=O)[C@H](Cc1c[nH]c2ccccc12)NC(=O)[C@@H](N)CCCCN)C(=O)N1CCC[C@H]1C(=O)N[C@@H](CCCCN)C(=O)N[C@@H](Cc1ccccc1)C(=O)N[C@@H](CC(C)C)C(=O)N[C@@H](Cc1cnc[nH]1)C(=O)N[C@@H](CC(C)C)C(N)=O , MIC observed: 6.25 µM

For CC(C)C[C@H](NC(=O)[C@H](Cc1c[nH]c2ccccc12)NC(=O)[C@H](CCCNC(=N)N)NC(=O)[C@H](CCCNC(=N)N)NC(=O)[C@H](Cc1c[nH]c2ccccc12)NC(=O)[C@H](CCCNC(=N)N)NC(=O)[C@H](CCCNC(=N)N)NC(=O)[C@H](Cc1c[nH]c2ccccc12)NC(=O)[C@H](CC(C)C)NC(=O)[C@@H](N)CCCNC(=N)N)C(=O)N[C@@H](CCCNC(=N)N)C(=O)O the compound record lists MIC as 4 µM
